Target: T1, TROP2 (UniProt P09758 27-323, limits assumed)
T1 sequence (looked up): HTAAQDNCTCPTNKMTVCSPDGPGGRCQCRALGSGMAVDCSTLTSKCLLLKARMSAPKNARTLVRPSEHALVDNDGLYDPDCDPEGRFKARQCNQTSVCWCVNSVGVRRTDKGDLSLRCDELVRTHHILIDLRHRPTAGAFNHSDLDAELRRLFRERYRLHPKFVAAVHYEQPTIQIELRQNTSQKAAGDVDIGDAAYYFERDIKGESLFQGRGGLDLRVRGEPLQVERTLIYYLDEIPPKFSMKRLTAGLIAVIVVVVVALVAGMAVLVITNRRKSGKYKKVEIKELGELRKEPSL
Experiment: cell-based or functional assay
Measured EC50(nM), inhibition of BxPC-3 cell proliferation by item
MEASUREMENT_NAME: EC50(nM), inhibition of BxPC-3 cell proliferation

BINDER	RESULT_NUMBER
hRS7-CL2A-SN38-D8 (antibody, human IgG1, kappa, V domains shown, CL2A-SN38 on cysteines of reduced interchain disulfides; label D8) VH: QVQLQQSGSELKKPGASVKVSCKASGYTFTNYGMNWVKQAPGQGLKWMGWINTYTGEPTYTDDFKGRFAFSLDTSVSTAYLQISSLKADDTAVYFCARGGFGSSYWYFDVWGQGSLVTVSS VL: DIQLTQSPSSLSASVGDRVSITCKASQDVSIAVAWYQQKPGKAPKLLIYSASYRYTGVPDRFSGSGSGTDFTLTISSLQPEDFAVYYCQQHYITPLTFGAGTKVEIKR	0.259
hRS7-CPT009-D4 (antibody, human IgG1, kappa, V domains shown, linker-drug CPT009 on cysteines of reduced interchain disulfides; label D4) VH: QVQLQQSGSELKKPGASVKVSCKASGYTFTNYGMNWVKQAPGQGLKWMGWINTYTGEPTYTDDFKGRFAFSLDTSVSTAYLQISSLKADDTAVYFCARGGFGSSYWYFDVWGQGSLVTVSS VL: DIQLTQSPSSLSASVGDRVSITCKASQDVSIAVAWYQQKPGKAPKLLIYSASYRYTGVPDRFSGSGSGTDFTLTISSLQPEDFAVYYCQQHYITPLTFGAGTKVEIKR	0.353
hRS7-SN38-D8 (antibody, human IgG1, kappa, V domains shown, comp.5-linked SN38 on cysteines of reduced interchain disulfides; label D8) VH: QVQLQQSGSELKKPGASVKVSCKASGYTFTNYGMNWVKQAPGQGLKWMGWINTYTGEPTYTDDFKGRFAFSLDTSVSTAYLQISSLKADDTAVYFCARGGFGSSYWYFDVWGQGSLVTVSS VL: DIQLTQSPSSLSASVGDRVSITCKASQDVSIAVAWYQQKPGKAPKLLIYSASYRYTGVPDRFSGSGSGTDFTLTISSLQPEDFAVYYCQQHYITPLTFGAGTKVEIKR	6.46
